- target-entity: Jak2 (UniProt O60674)
- Sequence (O60674 whole entry, looked up): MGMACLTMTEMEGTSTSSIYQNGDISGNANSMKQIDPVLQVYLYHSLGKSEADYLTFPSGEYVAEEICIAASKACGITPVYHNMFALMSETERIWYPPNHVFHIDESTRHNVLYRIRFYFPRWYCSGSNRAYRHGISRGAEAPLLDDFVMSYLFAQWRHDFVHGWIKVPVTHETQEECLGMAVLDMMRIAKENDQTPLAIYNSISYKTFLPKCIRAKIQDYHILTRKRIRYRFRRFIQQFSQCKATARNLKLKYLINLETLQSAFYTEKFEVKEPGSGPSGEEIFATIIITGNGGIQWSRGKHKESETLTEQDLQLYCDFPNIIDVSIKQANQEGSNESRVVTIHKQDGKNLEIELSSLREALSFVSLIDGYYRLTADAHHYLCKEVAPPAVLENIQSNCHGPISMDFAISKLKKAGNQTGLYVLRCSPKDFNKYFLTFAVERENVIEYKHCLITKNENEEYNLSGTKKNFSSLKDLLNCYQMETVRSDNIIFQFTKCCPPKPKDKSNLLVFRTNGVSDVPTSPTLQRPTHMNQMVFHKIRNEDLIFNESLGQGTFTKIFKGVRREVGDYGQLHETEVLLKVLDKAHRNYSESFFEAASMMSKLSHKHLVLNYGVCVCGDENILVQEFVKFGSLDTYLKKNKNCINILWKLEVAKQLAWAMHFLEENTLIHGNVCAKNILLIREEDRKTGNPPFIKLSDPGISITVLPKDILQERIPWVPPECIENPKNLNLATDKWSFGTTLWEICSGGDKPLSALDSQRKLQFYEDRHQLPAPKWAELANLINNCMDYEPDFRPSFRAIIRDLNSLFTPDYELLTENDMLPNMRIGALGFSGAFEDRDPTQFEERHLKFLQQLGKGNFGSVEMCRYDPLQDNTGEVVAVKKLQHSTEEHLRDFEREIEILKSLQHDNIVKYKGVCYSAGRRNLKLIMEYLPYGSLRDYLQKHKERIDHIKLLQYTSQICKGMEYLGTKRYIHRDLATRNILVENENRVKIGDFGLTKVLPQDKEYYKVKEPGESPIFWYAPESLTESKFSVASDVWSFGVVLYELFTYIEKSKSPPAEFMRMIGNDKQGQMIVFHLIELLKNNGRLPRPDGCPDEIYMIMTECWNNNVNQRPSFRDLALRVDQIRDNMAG
- experiment-notes: phosphorylation enrichment, bacterial display (enrichment ratio); higher = better substrate or ligand; peptides without Tyr show the background;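 also: 11-residue human phosphosite peptides and single-mutation variants displayed on the E. coli surface, counted by deep sequencing, each peptide's frequency after selection divided by its frequency in the unselected input library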;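 also: frequency after pTyr selection over input frequency; kinase dosed for 20-30% of maximal phosphorylation in three min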
# phosphorylation enrichment >= 1 gives t, anything below gives f

Please review the entries below; each comes with its answer.
FLTSSYINIST [IL23R_Y178_YF]; t
ADYPDCKYRPR [SOX11_Y116_Y116C]; f
KKLHKYNTQFQ [PIK3R1_Y452_E451K]; t
LLSVAYKNVVR [YWHAZ_Y48_G53R]; t
KNILCYIQGGS [HYDIN_Y4610]; t

Please check the record GREAEYSDKHG [EPHB4_Y574] and state if its phosphorylation enrichment is at or above 1.
f

Same lookup for HSDFQYSQRSQ [PKP2_Y168_YF] , please.
f

Same lookup for GAALAYGLDKS [HSPA9_Y230_A225G] , please.
f

Same lookup for VHHLVYHHHHH [CACNA1H_Y519] , please.
t

Same lookup for FPPTHYIRRVP [SLC4A11_Y820_YF] , please.
f

Same lookup for SGGGLYRDMGA [CBX8_Y321] , please.
f

Same lookup for YEKFLYFLPAS [DYNC2H1_Y346_H341Y] , please.
t
